Tested on: Schistosoma mansoni adult worms (49-day-old)
assay_info: Effect on adult schistosomes (49-day-old) in infected mice
Format: in vivo
measurement_context: single 400 mg/kg per os; percentage of dead worm in the liver
Structures can show the parent of a compound that is named as a salt.
experimental_endpoint: Adult worms day 49, per os 400 mg/kg, DEAD WORM (%)

compound: CC(C)(N)C(=O)NC[C@H]1CC[C@]2(CC1)OOC1(O2)C2CC3CC(C2)CC1C3 (stereo partly shown)
meas_value: 15
--
compound: CC(C)(O)C[C@H]1CC[C@]2(CC1)OOC1(O2)C2CC3CC(C2)CC1C3 (stereo partly shown)
meas_value: 12
--
compound: NC[C@H]1CC[C@]2(CC1)OOC1(O2)C2CC3CC(C2)CC1C3 (stereo partly shown)
meas_value: 28
--
compound: C1=C(c2ccccc2)CCC2(C1)OOC1(O2)C2CC3CC(C2)CC1C3 (stereo not shown)
meas_value: 0
--
compound: c1ccc(C2CCC3(CC2)OOC2(O3)C3CC4CC(C3)CC2C4)cc1 (stereo not shown)
meas_value: 10
--
compound: O=C(OC[C@H]1CC[C@]2(CC1)OOC1(O2)C2CC3CC(C2)CC1C3)N1CCN(c2ccccc2)CC1 (stereo partly shown)
meas_value: 0
--
compound: O=C(C1CCCCC1)N1CC(=O)N2CCc3ccccc3C2C1 (stereo not shown) [PRAZIQUANTEL, praziquantel, reference compound]
meas_value: 89
--
compound: OC1CCC2(CC1)OOC1(O2)C2CC3CC(C2)CC1C3 (stereo not shown)
meas_value: 28
--
compound: CCOC(=O)CC1CCC2(CC1)OOC1(O2)C2CC3CC(C2)CC1C3 (stereo not shown)
meas_value: 21
--
compound: c1ccc(C2CCC3(CC2)OOC2(O3)C3CCCC2CCC3)cc1 (stereo not shown)
meas_value: 0
--
compound: O=C([C@H]1CC[C@]2(CC1)OOC1(O2)C2CC3CC(C2)CC1C3)N1CCN(c2ccccc2)CC1 (stereo partly shown) [OZ140, hydrochloride]
meas_value: 3
--
compound: O=S1(=O)CCC2(CC1)OOC1(O2)C2CC3CC(C2)CC1C3 (stereo not shown)
meas_value: 4
--
compound: CC1(C)COC2(CCC3(CC2)OOC2(O3)C3CC4CC(C3)CC2C4)OC1 (stereo not shown)
meas_value: 4
--
compound: CCOC(=O)N1CCC2(CC1)OOC1(O2)C2CC3CC(C2)CC1C3 (stereo not shown)
meas_value: 4
--
compound: O=C1CCC2(CC1)OOC1(O2)C2CC3CC(C2)CC1C3 (stereo not shown)
meas_value: 32
--
compound: O=C1CCC2(CCO1)OOC1(O2)C2CC3CC(C2)CC1C3 (stereo not shown)
meas_value: 5
--
compound: CC1(C)COC2(CCC3(CC2)OOC2(O3)C3CCCC2CCC3)OC1 (stereo not shown)
meas_value: 0
--
compound: O=C(CO)N1CCC2(CC1)OOC1(O2)C2CC3CC(C2)CC1C3 (stereo not shown)
meas_value: 19
--
compound: OCCC1CCC2(CC1)OOC1(O2)C2CC3CC(C2)CC1C3 (stereo not shown)
meas_value: 17
--
compound: O=C(O)CC1CCC2(CC1)OOC1(O2)C2CC3CC(C2)CC1C3 (stereo not shown)
meas_value: 17
--
compound: O=C1COC2(CCC3(CC2)OOC2(O3)C3CC4CC(C3)CC2C4)OC1 (stereo not shown)
meas_value: 8
--
compound: CC(=O)N1CCC2(CC1)OOC1(O2)C2CC3CC(C2)CC1C3 (stereo not shown)
meas_value: 10
--
compound: O=C1CC2CC3(CC2C1)OOC1(O3)C2CC3CC(C2)CC1C3 (stereo not shown)
meas_value: 0
--
compound: Cc1ccc(S(=O)(=O)O)cc1.O=C(C[C@H]1CC[C@]2(CC1)OO[C@]1(O2)C2CC3CC(C2)CC1C3)N1CCNCC1
meas_value: 12
--
compound: CCN(CC)CC[C@H]1CC[C@]2(CC1)OOC1(O2)C2CC3CC(C2)CC1C3 (stereo partly shown) [OZ126, hydrobromide]
meas_value: 9
--
compound: c1ccc(C2(c3ccccn3)OOC3(O2)C2CC4CC(C2)CC3C4)nc1 (stereo not shown)
meas_value: 0
--
compound: CC(C)(O)[C@H]1CC[C@]2(CC1)OOC1(O2)C2CC3CC(C2)CC1C3 (stereo partly shown)
meas_value: 0
--
compound: C1COC2(CCC3(CC2)OOC2(O3)C3CC4CC(C3)CC2C4)O1 (stereo not shown)
meas_value: 13
--
compound: NC(=O)CNC[C@H]1CC[C@]2(CC1)OOC1(O2)C2CC3CC(C2)CC1C3 (stereo partly shown)
meas_value: 19
--
compound: NC(=O)OC1CCC2(CC1)OOC1(O2)C2CC3CC(C2)CC1C3 (stereo not shown)
meas_value: 4
